assay: Phase 1b study in RYR1-Related Myopathy patients, plasma pharmacokinetics; format: in vivo, human (RYR1-Related Myopathy patients); details: human, plasma, po, 120 mg, single oral 120 mg, Day 1, three subjects, Median; read-out: Cmax
Endpoint name: Cmax (ng/mL)
Express the result in ng/mL but write the number alone.

Challenge: If you can, please state the reported Cmax value of COc1ccc2c(c1)CN(Cc1ccc(C(=O)O)cc1)CCS2.O=C(O)/C=C/C(=O)O [Compound I] .
Response given: 12400

====

assay: Phase 1 clinical trial, Part II multiple ascending doses over 14 days, plasma pharmacokinetics; type: in vivo, human (healthy male volunteers); details: male, human, plasma, oral; 120 mg once daily, Day 14, geom. mean; read-out: t1/2, z (converted)
Endpoint name: half-life (h)
Express the result in h but write the number alone.

Challenge: If you can, please state the reported half-life value of `COc1ccc2c(c1)CN(Cc1ccc(C(=O)O)cc1)CCS2.O=C(O)/C=C/C(=O)O` .
Response given: 19.3

====

experiment: Phase 1b study in RYR1-Related Myopathy patients, plasma pharmacokinetics; format: in vivo, human (RYR1-Related Myopathy patients); details: human, plasma, po, 120 mg, single oral 120 mg, Day 1, three subjects, arithmetic mean; read-out: AUC0-24
Endpoint name: AUC(0-t) (µg·h/mL)
Express the result in µg·h/mL but write the number alone.

Challenge: If you can, please state the reported AUC(0-t) value of `COc1ccc2c(c1)CN(Cc1ccc(C(=O)O)cc1)CCS2.O=C(O)/C=C/C(=O)O` .
Response given: 172

====

test: Phase 1 clinical trial, Part II multiple ascending doses over 14 days, plasma pharmacokinetics; assay type: in vivo, human (healthy male volunteers); conditions: male, human, plasma, oral, 60 mg, 60 mg once daily, Day 1, geom. mean
Endpoint name: Cmax (µg/mL)
Express the result in µg/mL but write the number alone.

Challenge: If you can, please state the reported Cmax value of `COc1ccc2c(c1)CN(Cc1ccc(C(=O)O)cc1)CCS2.O=C(O)/C=C/C(=O)O` .
Response given: 6.09

====

experiment: Phase 1 clinical trial, Part II, muscle biopsy: concentration in quadriceps muscle; type: in vivo, human (healthy male volunteers); conditions: male, human, quadriceps muscle (unbound) / plasma, oral, dose range 20-240 mg; read-out: Kpu, range of geometric mean ratios across doses
Endpoint name: Kp at 3 h

Challenge: If you can, please state the reported Kp at 3 h value of `COc1ccc2c(c1)CN(Cc1ccc(C(=O)O)cc1)CCS2.O=C(O)/C=C/C(=O)O` .
Response given: 0.0081 to 0.0106

====

assay: Phase 1b study in RYR1-Related Myopathy patients, plasma pharmacokinetics; format: in vivo, human (RYR1-Related Myopathy patients); conditions: human, plasma, po, 120 mg, single oral 120 mg, Day 1; read-out: AUC0-t, individual values
Endpoint name: AUC(0-t)

Challenge: If you can, please state the reported AUC(0-t) value of `COc1ccc2c(c1)CN(Cc1ccc(C(=O)O)cc1)CCS2.O=C(O)/C=C/C(=O)O` .
Response given: 150 to 190 µg·h/mL

====

experiment: Phase 1 clinical trial, Part I single ascending doses, plasma pharmacokinetics; type: in vivo, human (healthy male volunteers); conditions: male, human, plasma; single oral dose 400 mg (Treatment E, n = 6), Day 1, geom. mean
Endpoint name: AUC(0-t) (µg·h/mL)
Express the result in µg·h/mL but write the number alone.

Challenge: If you can, please state the reported AUC(0-t) value of `COc1ccc2c(c1)CN(Cc1ccc(C(=O)O)cc1)CCS2.O=C(O)/C=C/C(=O)O` .
Response given: 656

====

assay: Phase 1b study in RYR1-Related Myopathy patients, plasma pharmacokinetics; type: in vivo, human (RYR1-Related Myopathy patients); settings: human, plasma, po, 200 mg, 200 mg oral daily for 28 days, three subjects, time 4 hr
Endpoint name: concentration at 4 h (ng/mL)
Express the result in ng/mL but write the number alone.

Challenge: If you can, please state the reported concentration at 4 h value of `COc1ccc2c(c1)CN(Cc1ccc(C(=O)O)cc1)CCS2.O=C(O)/C=C/C(=O)O` .
Response given: 15100

====

test: Phase 1b study in RYR1-Related Myopathy patients, plasma pharmacokinetics; assay type: in vivo, human (RYR1-Related Myopathy patients); conditions: human, plasma, po, 200 mg, single oral 200 mg, three subjects, time 5 hr
Endpoint name: concentration at 5 h (ng/mL)
Express the result in ng/mL but write the number alone.

Challenge: If you can, please state the reported concentration at 5 h value of `COc1ccc2c(c1)CN(Cc1ccc(C(=O)O)cc1)CCS2.O=C(O)/C=C/C(=O)O` .
Response given: 17600

====

experiment: Phase 1b study in RYR1-Related Myopathy patients, plasma pharmacokinetics; type: in vivo, human (RYR1-Related Myopathy patients); conditions: human, plasma, po, 120 mg, single oral 120 mg, Day 1, three subjects, geometric mean; read-out: AUC0-inf
Endpoint name: AUC(0-inf) (µg·h/mL)
Express the result in µg·h/mL but write the number alone.

Challenge: If you can, please state the reported AUC(0-inf) value of `COc1ccc2c(c1)CN(Cc1ccc(C(=O)O)cc1)CCS2.O=C(O)/C=C/C(=O)O` .
Response given: 257

====

test: Phase 1 clinical trial, Part I single ascending doses, plasma pharmacokinetics; assay type: in vivo, human (healthy male volunteers); conditions: male, human, plasma; single oral dose 80 mg, geom. mean; read-out: t1/2, z (converted)
Endpoint name: half-life (h)
Express the result in h but write the number alone.

Challenge: If you can, please state the reported half-life value of `COc1ccc2c(c1)CN(Cc1ccc(C(=O)O)cc1)CCS2.O=C(O)/C=C/C(=O)O` .
Response given: 22.7

====

experiment: Phase 1 clinical trial, Part I single ascending doses, plasma pharmacokinetics; type: in vivo, human (healthy male volunteers); conditions: male, human, plasma; single oral dose 80 mg, Day 1, geom. mean
Endpoint name: Cmax
Could you give the number and then its unit, please?

Challenge: If you can, please state the reported Cmax value of COc1ccc2c(c1)CN(Cc1ccc(C(=O)O)cc1)CCS2.O=C(O)/C=C/C(=O)O [Compound I] .
Response given: 6880 ng/mL

====

test: Phase 1 clinical trial, Part I single ascending doses, plasma pharmacokinetics; format: in vivo, human (healthy male volunteers); conditions: male, human, plasma; single oral dose 80 mg, Day 1, median; read-out: tmax
Endpoint name: Tmax (h)
Express the result in h but write the number alone.

Challenge: If you can, please state the reported Tmax value of COc1ccc2c(c1)CN(Cc1ccc(C(=O)O)cc1)CCS2.O=C(O)/C=C/C(=O)O [Compound I] .
Response given: 3

====

assay: Phase 1 clinical trial, Part II multiple ascending doses over 14 days, plasma pharmacokinetics; assay type: in vivo, human (healthy male volunteers); settings: male, human, plasma, oral; 60 mg once daily (Treatment J, n = 7), Day 1, geom. mean; read-out: AUC0-24
Endpoint name: AUC(0-t) (ng·h/mL)
Express the result in ng·h/mL but write the number alone.

Challenge: If you can, please state the reported AUC(0-t) value of `COc1ccc2c(c1)CN(Cc1ccc(C(=O)O)cc1)CCS2.O=C(O)/C=C/C(=O)O` .
Response given: 69200

====

assay: Phase 1b study in RYR1-Related Myopathy patients, plasma pharmacokinetics; format: in vivo, human (RYR1-Related Myopathy patients); settings: human, plasma, po, 120 mg, 120 mg oral daily, Day 13 trough, n 3, arithmetic mean; read-out: Ctrough_D13
Endpoint name: concentration at 13 day (ng/mL)
Express the result in ng/mL but write the number alone.

Challenge: If you can, please state the reported concentration at 13 day value of `COc1ccc2c(c1)CN(Cc1ccc(C(=O)O)cc1)CCS2.O=C(O)/C=C/C(=O)O` .
Response given: 8050

====

test: Phase 1 clinical trial, Part II multiple ascending doses over 14 days, plasma pharmacokinetics; type: in vivo, human (healthy male volunteers); details: male, human, plasma, oral, 120 mg, 120 mg once daily, Day 1, median; read-out: tmax
Endpoint name: Tmax
Could you give the number and then its unit, please?

Challenge: If you can, please state the reported Tmax value of `COc1ccc2c(c1)CN(Cc1ccc(C(=O)O)cc1)CCS2.O=C(O)/C=C/C(=O)O` .
Response given: 3 h

====

experiment: Phase 1 clinical trial, Part I single ascending doses, plasma pharmacokinetics; format: in vivo, human (healthy male volunteers); details: male, human, plasma; single oral dose 160 mg, Day 1, median; read-out: tmax
Endpoint name: Tmax
Could you give the number and then its unit, please?

Challenge: If you can, please state the reported Tmax value of `COc1ccc2c(c1)CN(Cc1ccc(C(=O)O)cc1)CCS2.O=C(O)/C=C/C(=O)O` .
Response given: 3 h

====

test: Phase 1b study in RYR1-Related Myopathy patients, plasma pharmacokinetics; type: in vivo, human (RYR1-Related Myopathy patients); settings: human, plasma, po, 120 mg, single oral 120 mg, Day 1, three subjects, arithmetic mean; read-out: Cmax
Endpoint name: Cmax (ng/mL)
Express the result in ng/mL but write the number alone.

Challenge: If you can, please state the reported Cmax value of `COc1ccc2c(c1)CN(Cc1ccc(C(=O)O)cc1)CCS2.O=C(O)/C=C/C(=O)O` .
Response given: 13300
